Origin of measurements: PubChem BioAssay

method_summary: RCMB18 cell growth, single agent and combined, cisplatin and BGB IC40 combos (AID 1671462);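 also: cells exposed to compound for four days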
measurement_parameters: RCMB18 medulloblastoma cells, measured here: BGB IC40 combination, at 0.05 µM, stronger effect = higher value
Non-standard residues stand in square brackets, D forms with d. Residues, ends and D or L forms follow the SMILES beside them. Dolaproine = CO[C@@H]([C@@H]1CCCN1)[C@@H](C)C(=O)O; Dil = CC[C@H](C)[C@H](NC)[C@@H](CC(=O)O)OC; NMeV = CN[C@H](C(=O)O)C(C)C
inhibition: recorded values

>  <compound>
COc1cccc2c1C(=O)c1c(O)c3c(c(O)c1C2=O)CC(O)(C(C)=O)CC3OC1CC(N)C(O)C(C)O1 (stereo not given)

>  <inhibition / %>
13.9

$$$$
>  <compound>
O=c1cc(-c2ccc(O)cc2)[nH]c(=S)[nH]1

>  <inhibition / %>
-13.5

$$$$
>  <compound>
CC[C@H](C)[C@@H]([C@@H](CC(=O)N1CCC[C@H]1[C@H](OC)[C@@H](C)C(=O)N[C@@H](Cc1ccccc1)C(=O)O)OC)N(C)C(=O)[C@@H](NC(=O)[C@@H](NC)C(C)C)C(C)C (H-[NMeV]V[Dil][Dolaproine]F-OH)

>  <inhibition / %>
-3.82

$$$$
>  <compound>
CC(C)c1ccc(-c2cc(=O)c3ccccc3o2)cc1

>  <inhibition / %>
-32.1

$$$$
>  <compound>
Cn1cnc2[nH]c(=O)[nH]c(=O)c21

>  <inhibition / %>
-17.4

$$$$
